System: RARg:RXRa (NR concentration 270 nM, RXRa partner concentration 90 nM)
Test: PBM binding z-score (relative to random genomic background probes); higher = stronger binding; sequences stand for … in GC…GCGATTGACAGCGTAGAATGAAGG
Classification field: enter y for PBM binding z-score values not below 3, n for values below it.

>  <seq_string>
CGAACGGGGGCATGAGTTGATAGCAAATGCCGAT

>  <class>
y

$$$$
>  <seq_string>
CCTAGTTGGTCACGGTCACACACGCTATAGGTAC

>  <class>
n

$$$$
>  <seq_string>
CGTCCTAGGTCATAGGAGGTCAGTGAAGACAGAT

>  <class>
y

$$$$
>  <seq_string>
AGTCAAAGTCCATCTAGGTAACGTAAGATATGCT

>  <class>
n

$$$$
>  <seq_string>
CCTTACGGGTCACTGACAGGTTATAGTATTTGGA

>  <class>
y

$$$$
>  <seq_string>
CCTAGTTGGTCGGGAGGTCACACACCGGATATGA

>  <class>
y

$$$$
>  <seq_string>
CCTAGCAGGCCAATCTGGGTCACTCAAGGCTTGA

>  <class>
n

$$$$
>  <seq_string>
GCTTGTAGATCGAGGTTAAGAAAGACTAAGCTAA

>  <class>
n

$$$$
>  <seq_string>
CAAACTAGGGCACCGGAAGGTCAAAGTCCGCATG

>  <class>
y

$$$$
>  <seq_string>
CGAACTAGGTCATTGACAGGACAGTTAATAGTAA

>  <class>
y

$$$$
